Each record here notes measured growth.
System: SF-268 CNS
Assay: NCI-60 one-dose screen, 48 h (100 = growth as untreated, 0 = no growth, -100 = all killed)
Conditions: 10 µM unless noted
About 83,000 compounds went through this panel and 20% of them were active in at least one assay; those are over-represented in the sample as a whole. The source made the active and inactive calls. The calls were made as follows: active = growth percent below 10; inactive = the rest.
measured parameter: growth

>  <smiles entry>
COc1cc2c(cc1OC)[C@@H]1C(=O)c3ccc4c(c3O[C@@H]1CO2)C[C@H](C(C)C)O4

>  <measured parameter>
growth

>  <result>
79.7% (inactive)

$$$$
>  <smiles entry>
N#CC(C#N)=Cc1cccc(F)c1

>  <measured parameter>
growth

>  <result>
99.7% (inactive)

$$$$
>  <smiles entry>
COc1ccc(N)cc1N

>  <measured parameter>
growth

>  <result>
128% (inactive)

$$$$
>  <smiles entry>
Cc1cc(NC(=O)NCCCOc2ccc(N3C(N)=NC(N)=NC3(C)C)cc2Cl)ccc1S(=O)(=O)F

>  <measured parameter>
growth

>  <result>
32.7% (inactive)

$$$$
>  <smiles entry>
C#COc1cccc(Nc2ncnc3cc(NC(=O)CF)ccc23)c1

>  <measured parameter>
growth

>  <result>
51.8% [6.25 µM] (inactive)

$$$$
>  <smiles entry>
Cc1ccc(N2CCN(CCC#N)CC2)cc1

>  <measured parameter>
growth

>  <result>
105% (inactive)

$$$$
>  <smiles entry>
Cc1cc(C(C)(C)C)ccc1O

>  <measured parameter>
growth

>  <result>
97.3% (inactive)

$$$$

* * *

Test system: DU-145 prostate
Experiment: NCI-60 one-dose screen, 48 h (100 = growth as untreated, 0 = no growth, -100 = all killed)
Settings: 10 µM unless noted
The panel holds about 83,000 compounds, 20% with a hit somewhere; the sample as a whole holds those more often.
Each record here notes measured growth.

>  <compound>
C[C@]12CC[C@H](O)C[C@@H]1CC[C@@H]1[C@@H]2CC[C@]2(C)OC(=O)CC[C@@H]12

>  <tested on>
DU-145 prostate

>  <growth (%)>
107

$$$$
>  <compound>
COC1C(O)CC(OC2CC(Oc3cc4cc5c(c(O)c4c(O)c3C)C(=O)[C@@H](OC3CC(OC4CC(OC6CC(C)(O)C(OC(C)=O)C(C)O6)C(O)C(C)O4)C(O)C(C)O3)[C@H]([C@H](OC)C(=O)[C@@H](O)[C@@H](C)O)C5)OC(C)C2OC(C)=O)OC1C (some centres not stated)

>  <tested on>
DU-145 prostate

>  <growth (%)>
-18.3

$$$$
>  <compound>
CC(=O)OC1CC2(O)C(CCC3(C)C(c4ccc(=O)oc4)CCC32O)C2(C)CCC(OC3OC(CO)C(O)C(O)C3O)C=C12 (configuration not stated)

>  <tested on>
DU-145 prostate

>  <growth (%)>
-100

$$$$
>  <compound>
Oc1ccccc1C=NCCN=Cc1ccccc1O.[Fe]

>  <tested on>
DU-145 prostate

>  <growth (%)>
104

$$$$
>  <compound>
Cc1c(C)c(N)c(C)c(C)c1N

>  <tested on>
DU-145 prostate

>  <growth (%)>
6.41

$$$$
>  <compound>
C[C@]12CCc3sc(Nc4ccc(O)cc4)nc3C1=CC[C@@H]1[C@@H]2CC[C@]2(C)C(=O)CC[C@@H]12

>  <tested on>
DU-145 prostate

>  <growth (%)>
10.4

$$$$
>  <compound>
C[C@]12C[C@H](c3ccoc3)OC(=O)[C@H]1CC[C@@]1(C)[C@@H]2[C@H]2C=C[C@]1(O)C(=O)O2

>  <tested on>
DU-145 prostate

>  <growth (%)>
109

$$$$
